Where do these numbers come from? They come from patent US10758619B2.

- experiment.notes: Fenretinide solubility in bovine serum
- Format: physicochemical
- details: plasma or biological fluid, thermodynamic from solid; fetal bovine serum, 37° C. (Example 3, FIG. 10A)
reported.metric: solubility (µg/mL)
Note: unit µg/mL is implicit; provide only the numeric part.

*Q* Consider the compound shown here: CC1=C(/C=C/C(C)=C/C=C/C(C)=C/C(=O)Nc2ccc(O)cc2)C(C)(C)CCC1 [Fenretinide, 4-hydroxy(phenyl)retinamide] What is its recorded solubility?
*A* 21

* * *

- experiment.notes: Fenretinide solubility in bovine serum
- Type: physicochemical
- details: plasma or biological fluid, thermodynamic from solid; fetal bovine serum, 37 C, after 6 days incubation (Example 2)
reported.metric: solubility at 6 days (µg/mL)
Note: unit µg/mL is implicit; provide only the numeric part.

*Q* Consider the compound shown here: CC1=C(/C=C/C(C)=C/C=C/C(C)=C/C(=O)Nc2ccc(O)cc2)C(C)(C)CCC1 [Fenretinide, 4-hydroxy(phenyl)retinamide] What is its recorded solubility at 6 days?
*A* 20.9
